Here the recorded SC Flux is given for each entry.
System: luciferase
Assay: Luciferase expression after local (intramuscular or subcutaneous) administration of mRNA
Assay type: in vivo
Details: subcutaneous, mRNA 0.01 mpk, 6 hours
Starred links: 1 amine or outer side, 2 acyl side, 3 side chain; linkers in the order of their positions; H or OH if unused. Non-standard residues stand in square brackets, D forms with d. Residues, ends and D or L forms follow the SMILES beside them. Gly(N-(3-decanoyloxypropyl)) = CCCCCCCCCC(=O)OCCCNCC(=O)O; N(2-decanoyloxyethyl)Gly = CCCCCCCCCC(=O)OCCNCC(=O)O; N(2-ethylhexyl)Gly = CCCCC(CC)CNCC(=O)O; X1 = CCCCC(CC)CSSCCN(CC(=O)[*:2])[*:1]; N(CH(CH2OH)2)Gly = O=C(O)CNC(CO)CO
Could you give me the number in p/s? Just the number is fine.

Supply recorded SC Flux for CCCCCCCCCC(=O)OCCN(CC(=O)N(CCOC(=O)CCCCCCCCC)CC(=O)N(CCSSCC(CC)CCCC)CC(=O)N(CCOC(=O)CCCCCCCCC)CC(=O)N(CCOC(=O)CCCCCCCCC)CC(=O)N(CCSSCC(CC)CCCC)CC(N)=O)C(=O)CNC(CO)CO (centres unmarked) [Compound 135] (H-[N(CH(CH2OH)2)Gly][N(2-decanoyloxyethyl)Gly][N(2-decanoyloxyethyl)Gly][X1][N(2-decanoyloxyethyl)Gly][N(2-decanoyloxyethyl)Gly][X1]-NH2) here. 5.56E+08

Please report SC Flux for the following compound: CCCCCCCCCC(=O)OCCCN(CC(N)=O)C(=O)CN(CC(CC)CCCC)C(=O)CN(CCCOC(=O)CCCCCCCCC)C(=O)CN(CCCOC(=O)CCCCCCCCC)C(=O)CN(CCCOC(=O)CCCCCCCCC)C(=O)CN(CC(CC)CCCC)C(=O)CNC(CO)CO (centres unmarked) [Compound 103] (H-[N(CH(CH2OH)2)Gly][N(2-ethylhexyl)Gly][Gly(N-(3-decanoyloxypropyl))][Gly(N-(3-decanoyloxypropyl))][Gly(N-(3-decanoyloxypropyl))][N(2-ethylhexyl)Gly][Gly(N-(3-decanoyloxypropyl))]-NH2) 7.28E+08

###

Assay: Delivery vehicle size and polydispersity by dynamic light scattering
Format: physicochemical
Conditions: DLS in PBS; peptoid:DSPC:Cholesterol:DMG-PEG2000 weight ratio 20:1.79:7.16:1.84, mRNA
Method: Delivery vehicles were formulated by rapid microfluidic mixing using a high throughput microfluidic system. […] Delivery vehicle size and polydispersity (PDI) was measured by dynamic light scattering in PBS. Degradable peptoids described herein were formulated as various formulations described in Table 3 according to the procedure described in Example 2. Particle size was characterized as described in Example 2, and […] encapsulation of mRNA was determined as described in Example 3.
Starred links: 1 amine or outer side, 2 acyl side, 3 side chain; linkers in the order of their positions; H or OH if unused. Non-standard residues stand in square brackets, D forms with d. Residues, ends and D or L forms follow the SMILES beside them. *: point of attachment. Gly(N-(3-decanoyloxypropyl)) = CCCCCCCCCC(=O)OCCCNCC(=O)O; N(3-lauroyloxypropyl)Gly = CCCCCCCCCCCC(=O)OCCCNCC(=O)O; Gly(N-(CH2)3O-octanoyl) = CCCCCCCC(=O)OCCCNCC(=O)O; Gly(N-3-morpholinopropyl) = O=C(O)CNCCCN1CCOCC1; N(2-ethylhexyl)Gly = CCCCC(CC)CNCC(=O)O; X2 = CCCCCCC(CCCC)CN(CC(=O)[*:2])[*:1]; X3 = CCCCCCCCSSCCN(CC(=O)[*:2])[*:1]; N(CH(CH2OH)2)Gly = O=C(O)CNC(CO)CO; NDecylGly = CCCCCCCCCCNCC(=O)O; NHexGly = CCCCCCNCC(=O)O; For = O=C*
PDI overview
API note: the answer field is a bare number with no unit suffix.

As a guide, the following entries are already answered.
compound	PDI
CCCCCCCCSSCCN(CC(=O)N(CCCN1CCOCC1)CC(=O)N(CCSSCCCCCCCC)CC(=O)N(CCCOC(=O)CCCCCCC)CC(=O)N(CCCOC(=O)CCCCCCC)CC(N)=O)C(=O)CN(CCCOC(=O)CCCCCCC)C(=O)CN(C=O)CCCOC(=O)CCCCCCC [Compound 134] (For-[Gly(N-(CH2)3O-octanoyl)][Gly(N-(CH2)3O-octanoyl)][X3][Gly(N-3-morpholinopropyl)][X3][Gly(N-(CH2)3O-octanoyl)][Gly(N-(CH2)3O-octanoyl)]-NH2)	0.062
CCCCCCCCCCCC(=O)OCCCN(CC(=O)N(CCCOC(=O)CCCCCCCCCCC)CC(=O)N(CCCCCC)CC(=O)N(CCCOC(=O)CCCCCCCCCCC)CC(=O)N(CCCOC(=O)CCCCCCCCCCC)CC(=O)N(CCCCCC)CC(N)=O)C(=O)CN(C=O)CCCN1CCOCC1 [Compound 71] (For-[Gly(N-3-morpholinopropyl)][N(3-lauroyloxypropyl)Gly][N(3-lauroyloxypropyl)Gly][NHexGly][N(3-lauroyloxypropyl)Gly][N(3-lauroyloxypropyl)Gly][NHexGly]-NH2)	0.238
CCCCCCCC(=O)OCCCN(CC(=O)N(CC(=O)N(CC(=O)N(CCCOC(=O)CCCCCCC)CC(=O)N(CC(N)=O)CC(CCCC)CCCCCC)CC(CC)CCCC)CC(CCCC)CCCCCC)C(=O)CN(CC(CC)CCCC)C(=O)CNC(CO)CO (centres unmarked) [Compound 104] (H-[N(CH(CH2OH)2)Gly][N(2-ethylhexyl)Gly][Gly(N-(CH2)3O-octanoyl)][X2][N(2-ethylhexyl)Gly][Gly(N-(CH2)3O-octanoyl)][X2]-NH2)	0.092
CCCCCCCCCC(=O)OCCCN(C=O)CC(=O)N(CC(=O)N(CCCOC(=O)CCCCCCCCC)CC(=O)N(CCCN1CCOCC1)CC(=O)N(CCCOC(=O)CCCCCCCCC)CC(=O)N(CC(=O)N(CCCOC(=O)CCCCCCCCC)CC(N)=O)CC(CC)CCCC)CC(CC)CCCC (centres unmarked) [Compound 121] (For-[Gly(N-(3-decanoyloxypropyl))][N(2-ethylhexyl)Gly][Gly(N-(3-decanoyloxypropyl))][Gly(N-3-morpholinopropyl)][Gly(N-(3-decanoyloxypropyl))][N(2-ethylhexyl)Gly][Gly(N-(3-decanoyloxypropyl))]-NH2)	0.166

Now look at this one.
Respond only with PDI recorded for CCCCCCCCCCCC(=O)OCCCN(CC(N)=O)C(=O)CN(CC(CC)CCCC)C(=O)CN(CCCCCCCCCC)C(=O)CN(CC(CC)CCCC)C(=O)CN(CCCOC(=O)CCCCCCCCCCC)C(=O)CN(CC(CC)CCCC)C(=O)CNC(CO)CO (centres unmarked) [Compound 59] (H-[N(CH(CH2OH)2)Gly][N(2-ethylhexyl)Gly][N(3-lauroyloxypropyl)Gly][N(2-ethylhexyl)Gly][NDecylGly][N(2-ethylhexyl)Gly][N(3-lauroyloxypropyl)Gly]-NH2) 0.106

###

Known PDI of a selection of molecules
Experiment: Delivery vehicle size and polydispersity by dynamic light scattering
Format: physicochemical
Settings: DLS in PBS; peptoid:DSPC:Cholesterol:DMG-PEG2000 weight ratio 20:1.79:7.16:1.84, mRNA
Experimental: Delivery vehicles were formulated by rapid microfluidic mixing using a high throughput microfluidic system. […] Delivery vehicle size and polydispersity (PDI) was measured by dynamic light scattering in PBS. Degradable peptoids described herein were formulated as various formulations described in Table 3 according to the procedure described in Example 2. Particle size was characterized as described in Example 2, and […] encapsulation of mRNA was determined as described in Example 3.
Non-standard residues stand in square brackets, D forms with d. Residues, ends and D or L forms follow the SMILES beside them. *: point of attachment. Gly(N-(3-decanoyloxypropyl)) = CCCCCCCCCC(=O)OCCCNCC(=O)O; N(3-lauroyloxypropyl)Gly = CCCCCCCCCCCC(=O)OCCCNCC(=O)O; N(3-imidazol-1-ylpropyl)Gly = O=C(O)CNCCCn1ccnc1; Gly(N-3-morpholinopropyl) = O=C(O)CNCCCN1CCOCC1; N(2-ethylhexyl)Gly = CCCCC(CC)CNCC(=O)O; N(octyl)Gly = CCCCCCCCNCC(=O)O; NHexGly = CCCCCCNCC(=O)O; For = O=C*
Kindly provide the number alone.

Example entries begin here.
molecule	measured.result
CCCCCCCCCC(=O)OCCCN(C=O)CC(=O)N(CCCOC(=O)CCCCCCCCC)CC(=O)N(CC(=O)N(CCCN1CCOCC1)CC(=O)N(CCCOC(=O)CCCCCCCCC)CC(=O)N(CCCOC(=O)CCCCCCCCC)CC(=O)N(CC(N)=O)CC(CC)CCCC)CC(CC)CCCC (stereo not drawn) [Compound 112] (For-[Gly(N-(3-decanoyloxypropyl))][Gly(N-(3-decanoyloxypropyl))][N(2-ethylhexyl)Gly][Gly(N-3-morpholinopropyl)][Gly(N-(3-decanoyloxypropyl))][Gly(N-(3-decanoyloxypropyl))][N(2-ethylhexyl)Gly]-NH2)	0.138
CCCCCCCCCCCC(=O)OCCCN(CC(=O)N(CC(=O)N(CCCCCC)CC(=O)N(CCCOC(=O)CCCCCCCCCCC)CC(=O)N(CC(=O)N(CCCCCC)CC(N)=O)CC(CC)CCCC)CC(CC)CCCC)C(=O)CNCCCn1ccnc1 (stereo not drawn) [Compound 72] (H-[N(3-imidazol-1-ylpropyl)Gly][N(3-lauroyloxypropyl)Gly][N(2-ethylhexyl)Gly][NHexGly][N(3-lauroyloxypropyl)Gly][N(2-ethylhexyl)Gly][NHexGly]-NH2)	0.139
CCCCCCCCCC(=O)OCCCN(CC(=O)N(CC(N)=O)CC(CC)CCCC)C(=O)CN(CCCCCCCC)C(=O)CN(CC(CC)CCCC)C(=O)CN(CCCOC(=O)CCCCCCCCC)C(=O)CN(CCCCCCCC)C(=O)CNCCCn1ccnc1 (stereo not drawn) [Compound 111] (H-[N(3-imidazol-1-ylpropyl)Gly][N(octyl)Gly][Gly(N-(3-decanoyloxypropyl))][N(2-ethylhexyl)Gly][N(octyl)Gly][Gly(N-(3-decanoyloxypropyl))][N(2-ethylhexyl)Gly]-NH2)	0.148
CCCCCCCCCCCC(=O)OCCCN(CC(=O)N(CC(N)=O)CC(CC)CCCC)C(=O)CN(CCCCCCCC)C(=O)CN(CC(CC)CCCC)C(=O)CN(CCCOC(=O)CCCCCCCCCCC)C(=O)CN(CCCCCCCC)C(=O)CN(C=O)CCCN1CCOCC1 (stereo not drawn) [Compound 74] (For-[Gly(N-3-morpholinopropyl)][N(octyl)Gly][N(3-lauroyloxypropyl)Gly][N(2-ethylhexyl)Gly][N(octyl)Gly][N(3-lauroyloxypropyl)Gly][N(2-ethylhexyl)Gly]-NH2)	0.151

Shifting focus to the molecule that follows.
Using the record for CCCCCCCCCCCC(=O)OCCN(CC(=O)N(CCOC(=O)CCCCCCCCCCC)CC(=O)N(CC(=O)N(CCOC(=O)CCCCCCCCCCC)CC(=O)N(CCOC(=O)CCCCCCCCCCC)CC(=O)N(CC(N)=O)CC(CC)CCCC)CC(CC)CCCC)C(=O)CN(C=O)CCCN1CCOCC1 (stereo not drawn) [Compound 65] , state its measured PDI. 0.248
